Reported values of % Inhibition n=1 48h for individual entries
# System: G. duodenalis BRIS/91/HEPU/1279
# Measurement Notes: Primary Giardia screen at 10 µM (live-cell imaging, automated counting)
# Assay type: cell-based, Giardia duodenalis
# Experimental Conditions: 48 h, first singlicate assay
# Experimental: Each compound was assessed in singlicate, at a final concentration of 10 μM (0.4 μL of a 5 mM stock; diluted to a final volume of 200 μL in culture medium; 0.2% DMSO). […] Plates were incubated in sealed chambers filled with 3% O2, 5% CO2 in N2 and growth was assessed at 24 and 48 h using live cell imaging and automated counting as previously described. […] The reliability of these assays was assessed by calculating Z’ factors for each plate as previously described.

| Compound | Measurement Units | % Inhibition n=1 48h |
| --- | --- | --- |
| COc1ccc(NC(=O)N2CCN(c3cc(C)nc(N4CCOCC4)n3)CC2)cc1 | % | 44.4 |
| COc1cccc(CCC(=O)N2CCCC(c3nnc4n3CCCCC4)C2)c1 (stereo not drawn) | % | 2.6 |
| CCOc1ccccc1CNC(=O)c1nc(C(C)C)oc1C | % | 24.0 |
| CN(Cc1ccccc1)C(=O)c1cccc2c1CCN2C(=O)Nc1ccccc1 | % | 0.0 |
| CCCNS(=O)(=O)c1cc(C(=O)N2CCCC2)cs1 | % | 0.0 |
| O=C(c1ccccc1)N1CCN(C(=O)c2ccc3noc(-c4ccccc4)c3c2)CC1 | % | 15.8 |
| CCn1ccc(C(=O)Nc2ccc3c(c2)Sc2ncccc2C(=O)N3C)n1 | % | 19.0 |
| O=C(CSc1ccccc1)NCC1(N2CCCCC2)CCOCC1 | % | 1.8 |
| COc1cccc(-n2ccn3cc(-c4ccc(OC)c(OC)c4)nc3c2=O)c1 | % | 36.9 |

* * *

# System: Neonatal foreskin fibroblast (NFF) cells
# Measurement Notes: Mammalian cell cytotoxicity assay (sulforhodamine B)
# Type: cell-based, human
# Experimental Conditions: Table S2; NFF vs 48 h Giardia IC50
Reported values of SI (48h Gd) for individual entries

| Chemical String | SI (48h Gd) |
| --- | --- |
| CCOc1ccc(CCNC(=O)c2ccc3c(c2)nc2n3CCOC2)cc1OCC | > 4 |
| Cc1ccc(C)c(-c2cc3c4nn(CC(=O)N(C)c5ccc(F)cc5)c(=O)n4ccn3n2)c1 | > 5 |
| COc1ccc(-c2csc(C3=C(N)N(CC(C)(C)CN(C)C)CC3=O)n2)cc1OC | > 2 |
| Nc1c(-c2nc(-c3ccccc3)cs2)c2ccccn2c1C(=O)c1ccc2c(c1)OCO2 | > 2 |
| CC(=O)Nc1ccc([N+](=O)[O-])c2nonc12 | < 6 |
| Cc1cccc(CNS(=O)(=O)c2cc(-c3csc(C)n3)sc2C)c1 | > 3 |
| CC(C)c1ccc(Nc2ncccc2S(=O)(=O)N2CCCC2)cc1 | > 5 |
| Cc1cc(-c2cc(C(=O)Nc3ccc(N4CCN(C)CC4)nc3)c3cnn(C(C)C)c3n2)c(C)o1 | 101 |
| CCc1nnc2c3ccccc3nc(N3CCN(c4cccc(Cl)c4)CC3)n12 | > 2 |
| COc1c(C)cnc(Cn2cnc([N+](=O)[O-])c2)c1C | > 3 |
| COc1cccc(Nc2c3c(nc4ccccc24)CCC3)c1 | < 4 |
| Cc1ccc(-n2c(=O)c3c(cnn3C)n(CC(=O)Nc3ccccc3C)c2=O)cc1 | > 2 |
